Source listed as patent EP4477653A1.

Biological target: human recombinant A3AR (expressed in HEK-293 cells) (Homo sapiens, UniProt P0DMS8)
Construct: host or cells: HEK-293 cells
Sequence (P0DMS8 1-318): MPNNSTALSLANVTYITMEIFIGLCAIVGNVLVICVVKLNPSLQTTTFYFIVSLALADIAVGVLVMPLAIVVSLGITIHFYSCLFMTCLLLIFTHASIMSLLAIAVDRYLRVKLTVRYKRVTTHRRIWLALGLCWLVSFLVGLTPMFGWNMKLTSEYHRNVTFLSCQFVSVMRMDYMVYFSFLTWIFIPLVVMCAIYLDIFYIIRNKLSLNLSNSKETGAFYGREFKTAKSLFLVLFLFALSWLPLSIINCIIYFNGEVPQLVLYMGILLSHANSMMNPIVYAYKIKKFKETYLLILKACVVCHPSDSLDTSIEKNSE
Assay: Adenosine receptors antagonism assay (Eurofins), [125I]-AB-MECA radioligand competition
Assay type: binding
Conditions: [125I]-AB-MECA 0.15 nM, r.t., 120 min; IC50 from dose-response curves; read-out: Potency Class A3AR
parameter measured: IC50

Use these answered entries as a reference point.
                                   molecule  parameter_measured       obs_value
0  CCC(CC)Nc1cc(NCCc2cccnc2)c2nnc(C(C)C)n2n1                IC50      1 to 10 nM
1  CC(C)c1nnc2c(NCc3ccccc3)cc(N[C@H]3CCCOC3)nn12                IC50    10 to 100 nM
2      CCC(CC)Nc1cc(NCc2ccccn2)c2nnc(C)n2n1                IC50    10 to 100 nM
3   CCC(CC)Nc1cc(Nc2ccncc2)c2nnc(C(C)C)n2n1                IC50      1 to 10 nM
4  CCC(C)Nc1cc(NCc2ccccn2)c2nnc(C3CC3)n2n1 (racemic)                IC50      1 to 10 nM
5  CC[C@H](CO)Nc1cc(NCc2ccc(N)cc2)c2nnc(C(C)C)n2n1                IC50    10 to 100 nM
6  Cc1cnc(CNc2cc(NCc3ccccc3)c3nnc(C(C)C)n3n2)cn1                IC50  100 to 1000 nM
7  CC[C@H](CO)Nc1cc(NCCc2ccccn2)c2nnc(C3CC3)n2n1                IC50    10 to 100 nM
8  CCC(CC)Nc1cc(NCc2ccccn2)c2nnc(C3CCCC3)n2n1                IC50    10 to 100 nM
9  CCC(CC)CNc1cc(NCC(CC)CC)c2nnc(C(C)C)n2n1                IC50      1 to 10 nM

IC50 for `CCC(CC)Nc1cc(Nc2ccccn2)c2nnc(C(C)C)n2n1` is < 1 nM

IC50 for `CCC(CC)Nc1cc(NCc2cccnn2)c2nnc(C3CC3)n2n1` is 1 to 10 nM
